# System: soybean plantlets
# protocol_text: High-throughput soybean screening for herbicide tolerance (plantlets)
# Format: in vivo, soybean (A3555)
# Parameters: key: 0 for poor tolerance, high damage, low green coloration; 1 for some tolerance, average damage, moderate green coloration; 2 for good tolerance, low damage, high green coloration
# particulars: TP32; S-3100 spray five weeks post-transformation, scored day four
value_kind: coloration score
Number only, please.

>  <molecule>
H_N100: microbial HemG protoporphyrinogen oxidase, SEQ ID NO:9 (SEQ ID NO:17 lacking start methionine; variant 20) (protein, listed as Enterobacter cloacae) MKTLILFSTRDGQTREIAAFLASELKEQGIYADVINLNRTEEIAWQEYDRVVIGASIRYGHFHPAVDRFVKKHTETLNSLPGAFFSVNLVARKAEKRTPQTNSYTRKFLLNSPWKPAACAVFAGALRYPRYRWYDRFMIRLIMKMTGGETDTRKEVVYTDWSQVASFAREIVQLTRSSRL

>  <coloration score>
2

$$$$

Task: Please give measured coloration score of the following entry: H_N20: microbial HemG protoporphyrinogen oxidase, SEQ ID NO:2 (SEQ ID NO:12 lacking start methionine) (protein, listed as Pantoea ananatis) MKALILFSTRDGQTQKIASAIADEIKGQQSCDVINIQDAKTLDWQQYDRVLIGASIRYGHFQPVVNEFVKHNLLALQQRVSGFFSVNLTARKPEKRSPETNAYTVKFLAQSPWQPDCCAVFAGALYYPRYRWFDRVMIQFIMRMTGGETDASKEVEYTDWQQVQRFARDFAQLPGKSY
Result: 0
